// Population Healthy Nuclei (%) lookup, one value per entry
tested on: U2OS; assay: Multiplex assay against U2OS; format: toxicity, cell-based; details: human, 12 h, 1 µM, compound concentration 1 uM, replicate 2
The reply should contain only the number, in %.

[
  {
    "Compound": "CCCCC[C@H](O)/C=C/[C@H]1[C@H](O)CC(=O)[C@@H]1CCCCCCC(=O)O",
    "Value Kind": "Population Healthy Nuclei (%)",
    "Readout Number": 81
  },
  {
    "Compound": "COCCCN1CCC(NC(=O)c2cc(Cl)c(N)c3c2OCC3)CC1 [PRUCALOPRIDE]",
    "Value Kind": "Population Healthy Nuclei (%)",
    "Readout Number": 71
  }
]

compound `Nc1nc(CC(=O)Nc2ccc(CCNC[C@H](O)c3ccccc3)cc2)cs1` , Population Healthy Nuclei (%) observed: 74

compound `Cc1cc(NC(=O)NCCN2CCC(O)(Cc3ccccc3)CC2)c2ccccc2n1` , Population Healthy Nuclei (%) observed: 71

compound `N[C@](CC1c2ccccc2Oc2ccccc21)(C(=O)O)[C@H]1C[C@@H]1C(=O)O` , Population Healthy Nuclei (%) observed: 79

compound CCC(=O)OCC(=O)[C@@]1(OC(=O)CC)[C@@H](C)C[C@H]2[C@@H]3CCC4=CC(=O)C=C[C@]4(C)[C@@]3(Cl)[C@@H](O)C[C@@]21C [BECLOMETHASONE DIPROPIONATE] , Population Healthy Nuclei (%) observed: 75

compound `Cc1nn(C)c2nc(NNC(=O)Nc3cc(Cl)nc(Cl)c3)cc(C(C)C)c12` , Population Healthy Nuclei (%) observed: 76

compound `C[C@@H]1CC(=O)Nc2cccc(-c3ccc4c(c3)c(-c3cnn(C)c3)nn4C)c2N1` , Population Healthy Nuclei (%) observed: 75

---

system: Fibroblast; assay: Multiplex assay against human fibroblast; assay type: toxicity, cell-based; settings: 24 h, 10 µM, compound concentration 10 uM, replicate 2
// Population Hoechst High Intensity Objects (%) lookup, one value per entry
The reply should contain only the number, in %.

[
  {
    "Smiles Record": "COc1cc2nc(N3CCN(C(=O)COc4c(OC)cccc4C(C)C)CC3)nc(N)c2cc1OC.Cl.Cl",
    "Readout Number": 23
  },
  {
    "Smiles Record": "CC(C)(C)c1ccc(CSc2cnn(C(C)(C)C)c(=O)c2Cl)cc1",
    "Readout Number": 0
  },
  {
    "Smiles Record": "C=CCN1C[C@H](C(=O)N(CCCN(C)C)C(=O)NCC)C[C@@H]2c3cccc4[nH]cc(c34)C[C@H]21",
    "Readout Number": 10
  }
]

Now for another entry.
Fibroblast Population Hoechst High Intensity Objects (%) of `COC(c1ccccc1)(c1ccccc1)[C@H](Oc1nc(C)cc(C)n1)C(=O)O` is 5

---

test system: HEK-293T; assay: Multiplex assay against HEK293T; format: toxicity, cell-based; conditions: human, 48 h, 1 µM, compound concentration 1 uM, replicate 1
Please respond with 1 when measured Population Hoechst High Intensity Objects (%) is strictly beneath 3%, and with 0 in all other cases.

These recorded examples may help you get a feel for the data.
[
  {
    "Compound": "COc1cc2nc(N3CCN(C(=O)c4ccco4)CC3)nc(N)c2cc1OC.Cl [PRAZOSIN HYDROCHLORIDE]",
    "Label Class": 1
  },
  {
    "Compound": "CCC(=O)OCC(=O)[C@@]1(OC(=O)CC)[C@@H](C)C[C@H]2[C@@H]3CCC4=CC(=O)C=C[C@]4(C)[C@@]3(Cl)[C@@H](O)C[C@@]21C [BECLOMETHASONE DIPROPIONATE]",
    "Label Class": 0
  },
  {
    "Compound": "O=c1ccc2ccc(OCCCCN3CCN(c4cccc5sccc45)CC3)cc2[nH]1 [BREXPIPRAZOLE]",
    "Label Class": 0
  }
]

Quick check: does COC(c1ccccc1)(c1ccccc1)[C@H](Oc1nc(C)cc(C)n1)C(=O)O [AMBRISENTAN] have Population Hoechst High Intensity Objects (%) under 3%? 1

Quick check: does O=C(NCCNCC(O)COc1ccc(O)cc1)N1CCOCC1.O=C(NCCNCC(O)COc1ccc(O)cc1)N1CCOCC1.O=C(O)/C=C/C(=O)O (configuration not stated) [XAMOTEROL FUMARATE] have Population Hoechst High Intensity Objects (%) under 3%? 1

Quick check: does `CC(C)(O)C(=O)N1CCN(c2ccc(C(F)(F)F)c(C3=C(c4c[nH]c5ccccc45)C(=O)NC3=O)c2)CC1` have Population Hoechst High Intensity Objects (%) under 3%? 1

Quick check: does COCCCN1CCC(NC(=O)c2cc(Cl)c(N)c3c2OCC3)CC1 [PRUCALOPRIDE] have Population Hoechst High Intensity Objects (%) under 3%? 1

Quick check: does `N[C@](CC1c2ccccc2Oc2ccccc21)(C(=O)O)[C@H]1C[C@@H]1C(=O)O` have Population Hoechst High Intensity Objects (%) under 3%? 1

Quick check: does Cc1c(Cc2ccc3ccccc3n2)c2cc(F)ccc2n1CC(=O)O [TIMAPIPRANT] have Population Hoechst High Intensity Objects (%) under 3%? 1

Quick check: does CN(C)C/C=C/C(=O)Nc1ccc(C(=O)N2CCCC(Nc3ncc(Cl)c(-c4c[nH]c5ccccc45)n3)C2)cc1 (configuration not stated) have Population Hoechst High Intensity Objects (%) under 3%? 0

Quick check: does CCCCC[C@H](O)/C=C/[C@H]1[C@H](O)CC(=O)[C@@H]1CCCCCCC(=O)O [ALPROSTADIL] have Population Hoechst High Intensity Objects (%) under 3%? 1

---

system: U2OS; assay: Multiplex assay against U2OS; format: toxicity, cell-based; details: human, 24 h, 1 µM, compound concentration 1 uM, replicate 1
// Population Pyknosed Nuclei (%) lookup, one value per entry
The reply should contain only the number, in %.

A selection of reference data follows.
[
  {
    "Compound": "CCCCC[C@H](O)/C=C/[C@H]1[C@H](O)CC(=O)[C@@H]1CCCCCCC(=O)O [ALPROSTADIL]",
    "Units Symbol": "%",
    "Population Pyknosed Nuclei (%)": 9
  },
  {
    "Compound": "O=c1ccc2ccc(OCCCCN3CCN(c4cccc5sccc45)CC3)cc2[nH]1 [BREXPIPRAZOLE]",
    "Units Symbol": "%",
    "Population Pyknosed Nuclei (%)": 18
  },
  {
    "Compound": "COc1c(Nc2ccc(S(C)(=O)=O)nc2C)ncnc1OC1CCN(C(=O)OC(C)C)CC1 [ADP-597]",
    "Units Symbol": "%",
    "Population Pyknosed Nuclei (%)": 7
  }
]

Now for another entry.
compound `N[C@](CC1c2ccccc2Oc2ccccc21)(C(=O)O)[C@H]1C[C@@H]1C(=O)O` , Population Pyknosed Nuclei (%) observed: 8

---

system: HEK-293T; assay: Multiplex assay against HEK293T; assay type: toxicity, cell-based; conditions: human, 48 h, 1 µM, compound concentration 1 uM, replicate 1
// Total Cell Count lookup, one value per entry
Write the number on its own, no unit after it.

A selection of reference data follows.
[
  {
    "Molecule": "C[C@@H]1CC(=O)Nc2cccc(-c3ccc4c(c3)c(-c3cnn(C)c3)nn4C)c2N1",
    "Total Cell Count": 627
  },
  {
    "Molecule": "Cc1sc2c(c1C)C(c1ccc(Cl)cc1)=N[C@H](CC(=O)OC(C)(C)C)c1nnc(C)n1-2",
    "Total Cell Count": 1012
  },
  {
    "Molecule": "COc1cc(C(=O)N2CC[C@@H](O)[C@@H](N)C2)cc2nc(-c3cc4ccccc4n3CC3CC3)n(C)c12.Cl",
    "Total Cell Count": 816
  }
]

molecule `O=C(Nc1cc(-c2ccccc2)nn1-c1ccccc1F)c1ccc([N+](=O)[O-])cc1` , Total Cell Count observed: 893

molecule `CC(C)(O)C(=O)N1CCN(c2ccc(C(F)(F)F)c(C3=C(c4c[nH]c5ccccc45)C(=O)NC3=O)c2)CC1` , Total Cell Count observed: 780

molecule `C=CCN1C[C@H](C(=O)N(CCCN(C)C)C(=O)NCC)C[C@@H]2c3cccc4[nH]cc(c34)C[C@H]21` , Total Cell Count observed: 763

molecule `CCc1nn2c(C)cc(C)nc2c1Cc1ccc(-c2nnc(C3CCNCC3)o2)cc1` , Total Cell Count observed: 842

molecule `CN(C)C(=O)Cn1cc(-c2ccc(-c3nnc4ccccn34)cc2)cn1` , Total Cell Count observed: 946

molecule Cl.Cl.OCCOCCN1CCN(C(c2ccccc2)c2ccc(Cl)cc2)CC1 (configuration not stated) [HYDROXYZINE HYDROCHLORIDE] , Total Cell Count observed: 932

molecule COc1cc2nc(N3CCN(C(=O)c4ccco4)CC3)nc(N)c2cc1OC.Cl [PRAZOSIN HYDROCHLORIDE] , Total Cell Count observed: 1114

molecule `CC(C)(C)c1ccc(CSc2cnn(C(C)(C)C)c(=O)c2Cl)cc1` , Total Cell Count observed: 585
